These data points were gathered from patent US20100168102A9.

molecular target: human ROCKα/ROCKII mix (Homo sapiens); construct: purchased Upstate Biotechnology 14-451; test: Biochemical assay for ROCK (fluorescence polarization, ROCK IMAP Kit); conditions: Table 2, compounds of Formula XIII
Sequence (O75116 11-552 limits assumed): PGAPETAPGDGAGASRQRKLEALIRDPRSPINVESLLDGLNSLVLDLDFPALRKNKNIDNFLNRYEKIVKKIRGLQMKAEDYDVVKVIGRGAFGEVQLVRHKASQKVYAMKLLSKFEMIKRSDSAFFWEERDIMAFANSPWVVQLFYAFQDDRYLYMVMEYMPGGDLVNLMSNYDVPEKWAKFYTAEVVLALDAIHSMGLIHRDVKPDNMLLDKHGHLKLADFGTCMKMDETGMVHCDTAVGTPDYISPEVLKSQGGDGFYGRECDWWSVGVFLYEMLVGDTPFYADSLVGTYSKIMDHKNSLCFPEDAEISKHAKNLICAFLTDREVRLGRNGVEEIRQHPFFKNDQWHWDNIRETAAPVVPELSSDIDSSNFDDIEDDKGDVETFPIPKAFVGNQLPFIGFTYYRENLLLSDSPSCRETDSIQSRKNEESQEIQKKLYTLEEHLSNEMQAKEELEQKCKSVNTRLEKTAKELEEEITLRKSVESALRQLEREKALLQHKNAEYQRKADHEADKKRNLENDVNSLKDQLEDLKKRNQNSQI
Counter-ions that a name gives are not always drawn.
recordedEndpoint: IC50

The following compounds have reported results that may help.
* NC(CNC(=O)c1ccc2cc[nH]c2c1)c1ccc(C(=O)Nc2ccncc2)cc1 (stereo not drawn) [Compound 131] | 0.5 to 5 µM
* NC(CNC(=O)c1ccc([N+](=O)[O-])o1)c1ccc(C(=O)Nc2ccncc2)cc1 (stereo not drawn) [Compound 120] | 0.5 to 5 µM
* N#Cc1cccc(C(=O)NCC(N)c2ccc(C(=O)Nc3ccncc3)cc2)c1 (stereo not drawn) [Compound 94] | 0.5 to 5 µM
* NC(CNC(=O)Cc1ccc(F)c(F)c1)c1ccc(C(=O)Nc2ccncc2)cc1 (stereo not drawn) [Compound 167, dihydrochloride] | 0.05 to 0.5 µM
* COc1ccc(C(=O)NCC(N)c2ccc(C(=O)Nc3ccncc3)cc2)cc1 (stereo not drawn) [Compound 74] | 0.5 to 5 µM

Parameter requested: IC50. Apply to each item below.
1. NC(CNC(=O)c1ccc(C(=O)c2ccccc2)cc1)c1ccc(C(=O)Nc2ccncc2)cc1 (stereo not drawn) [Compound 100]
2. NC(CNC(=O)c1ccc2[nH]ccc2c1)c1ccc(C(=O)Nc2ccncc2)cc1 (stereo not drawn) [Compound 132]
3. NC(CNC(=O)Cc1ccc(F)cc1)c1ccc(C(=O)Nc2ccncc2)cc1 (stereo not drawn) [Compound 148]
4. NC(CNC(=O)CC1CCCCC1)c1ccc(C(=O)Nc2ccncc2)cc1 (stereo not drawn) [Compound 50]

1: 0.5 to 5 µM; 2: 0.05 to 0.5 µM; 3: 0.05 to 0.5 µM; 4: 0.5 to 5 µM

Parameter requested: IC50. Apply to each item below.
1. Nc1c(C(=O)NCC(N)c2ccc(C(=O)Nc3ccncc3)cc2)cnn1-c1ccc(F)cc1 (stereo not drawn) [Compound 123]
2. Cc1ccccc1C(=O)NCC(N)c1ccc(C(=O)Nc2ccncc2)cc1 (stereo not drawn) [Compound 84]
3. NC(CNC(=O)Cc1ccc2ccccc2c1)c1ccc(C(=O)Nc2ccncc2)cc1 (stereo not drawn) [Compound 135]
4. NC(CNC(=O)c1cc2ccccc2[nH]1)c1ccc(C(=O)Nc2ccncc2)cc1 (stereo not drawn) [Compound 130]
5. CC(=NOCC(=O)NCC(N)c1ccc(C(=O)Nc2ccncc2)cc1)c1ccccc1 (stereo not drawn) [Compound 60]
6. CCNS(=O)(=O)c1cccc(C(=O)NCC(N)c2ccc(C(=O)Nc3ccncc3)cc2)c1 (stereo not drawn) [Compound 97]

1: 0.5 to 5 µM; 2: 0.5 to 5 µM; 3: 0.5 to 5 µM; 4: 0.5 to 5 µM; 5: 0.05 to 0.5 µM; 6: 0.5 to 5 µM
